meta.source: paper PMC11997985

Reported values of % found in incubation plasma at time 0.2 min for individual entries
test: Compounds in pre-precipitated (inactivated) plasma; assay type: in vitro ADME, human; conditions: peak area in incubation plasma versus pre-precipitated plasma
MEASUREMENT NAME: % found in incubation plasma at time 0.2 min

INSERT INTO assay_data (compound, result) VALUES
  ('CN(C)CCc1c[nH]c2cccc(OP(=O)(O)O)c12 [Compound 8, 4-phosphoryloxy-N,N-dimethyltryptamine, reference compound]', '67%'),
  ('CCOC(=O)Oc1cccc2[nH]cc(CCN(C)C)c12.O=C(O)/C=C/C(=O)O', '17%'),
  ('CC(=O)Oc1cccc2[nH]cc(CCN(C)C)c12.O=C(O)/C=C/C(=O)O', '9.8%'),
  ('CN(C)CCc1c[nH]c2cccc(OCc3ccccc3)c12', '115%'),
  ('CN(C)CCc1c[nH]c2cccc(OC(=O)C3CC3)c12.O=C(O)/C=C/C(=O)O', '90%');

----------
assay: Plasma stability in human plasma; type: in vitro ADME; conditions: human, pooled human plasma; 0.2 min (first sample, reference)
Reported values of remaining at 12 s, 1 μM for individual entries
MEASUREMENT NAME: remaining at 12 s, 1 μM (%)

INSERT INTO assay_data (compound, numeric_readout) VALUES
  ('CCOC(=O)Oc1cccc2[nH]cc(CCN(C)C)c12.O=C(O)/C=C/C(=O)O', 100),
  ('CN(C)CCc1c[nH]c2cccc(OCc3ccccc3)c12', 100),
  ('CN(C)CCc1c[nH]c2cccc(OP(=O)(O)O)c12 [Compound 8, 4-phosphoryloxy-N,N-dimethyltryptamine, reference compound]', 100),
  ('CN(C)CCc1c[nH]c2cccc(OC(=O)C3CC3)c12.O=C(O)/C=C/C(=O)O', 100),
  ('CC(=O)Oc1cccc2[nH]cc(CCN(C)C)c12.O=C(O)/C=C/C(=O)O', 100);

----------
experiment: Forced degradation of psilocin salts, oxidative (0.30% H2O2); conditions: 0.30% H2O2, after 24 h
Reported values of % psilocin remaining for individual entries
MEASUREMENT NAME: % psilocin remaining (%)

INSERT INTO measurements (molecule, numeric_readout) VALUES
  ('CN(C)CCc1c[nH]c2cccc(O)c12.Cl [Compound 9a]', 100),
  ('CN(C)CCc1c[nH]c2cccc(O)c12.O=P(O)(O)O [Compound 9e]', 83),
  ('CN(C)CCc1c[nH]c2cccc(O)c12.OB(O)O [Compound 9b]', 0),
  ('CN(C)CCc1c[nH]c2cccc(O)c12.O=C(O)C(F)(F)F [Compound 9f]', 78),
  ('CN(C)CCc1c[nH]c2cccc(O)c12.O=C(O)c1ccccc1 [Compound 9c]', 94);

----------
test: Chemical stability in 1.0 M NaHCO3 and 1.0 M HCl; settings: 1.0 M NaHCO3
Reported values of half-life at 24 h, 5 mM for individual entries
MEASUREMENT NAME: half-life at 24 h, 5 mM (min)

INSERT INTO assay_data (molecule, numeric_readout) VALUES
  ('CCCCC(=O)Oc1cccc2[nH]cc(CCN(C)C)c12.O=C(O)/C=C/C(=O)O', 3000),
  ('CC(C)COC(=O)Oc1cccc2[nH]cc(CCN(C)C)c12.O=CO', 2200),
  ('CN(C)CCc1c[nH]c2cccc(OP(=O)(O)O)c12 [Compound 8, 4-phosphoryloxy-N,N-dimethyltryptamine, reference compound]', 15000);
